target: USP7 (Homo sapiens (Human)); test: USP7 fluorescence polarisation (FP) assay with ubiquitin-Lys-TAMRA substrate; type: biochemical; settings: biochemical inhibition; read-out: USP7 IC50 activity (Table 3a, classes)
Measured IC50 of individual entries
property: IC50

compound=Cc1ccc(C(=O)N2CCC(O)(Cn3cnc4c(cc(Cl)n4-c4ccc([C@@H]5CO[C@@H](C)CN5)cc4)c3=O)CC2)c(C)c1 result="250 to 2000 nM"
compound=CC1(C(=O)N2CCC(O)(Cn3cnc4c(cc(Cl)n4-c4ccc([C@@H]5CO[C@@H](C6CC6)CN5)cc4)c3=O)CC2)CC1 result="< 100 nM"
compound=C[C@H]1CN[C@H](c2ccc(-n3c(Cl)cc4c(=O)n(CC5(O)CCN(C(=O)c6ccc(Cl)cc6)CC5)cnc43)cc2)CO1 result="100 to 250 nM"
compound="CC1(C)COCC(c2ccc(-n3c(Cl)cc4c(=O)n(CC5(O)CCN(C(=O)c6ccc(Cl)cc6)CC5)cnc43)cc2)N1 (stereo not drawn)" result="100 to 250 nM"
compound="O=C(c1ccc(Cl)cc1)N1CCC(O)(Cn2cnc3c(cc(Cl)n3-c3ccc([C@@H]4COC5(CCC5)CN4)cc3)c2=O)CC1 (racemic)" result="100 to 250 nM"
compound="O=C(c1ccc(Cl)cc1)N1CCC(O)(Cn2cnc3c(cc(Cl)n3-c3ccc(C4COCC5(CC5)N4)cc3)c2=O)CC1 (stereo not drawn)" result="250 to 2000 nM"
compound=C[C@H]1CN[C@H](c2ccc(-n3c(Cl)cc4c(=O)n(CC5(O)CCN(C(=O)c6ccc(F)c(F)c6)CC5)cnc43)cc2)CO1 result="250 to 2000 nM"
compound=C[C@H]1CN[C@H](c2ccc(-n3c(Cl)cc4c(=O)n(CC5(O)CCN(C(=O)c6cccc(Cl)c6)CC5)cnc43)cc2)CO1 result="100 to 250 nM"
compound="O=C(C[C@H](c1ccccc1)C(F)(F)F)N1CCC(O)(Cn2cnc3c(cc(Cl)n3-c3ccc([C@H]4COCCN4)cc3)c2=O)CC1 (single isomer, unassigned)" result="< 100 nM"
compound="O=C(N1CCC(O)(Cn2cnc3c(cc(Cl)n3-c3ccc([C@@H]4COCCN4)cc3)c2=O)CC1)C1(C2CC2)CC1 (single isomer, unassigned)" result="< 100 nM"
compound=Cc1ccc(C(=O)N2CCC(O)(Cn3cnc4c(cc(Cl)n4-c4ccc([C@H]5CO[C@H](C)CN5)c(C)c4)c3=O)CC2)c(Cl)c1 result="< 100 nM"
compound="CC1(C(=O)N2CCC(O)(Cn3cnc4c(cc(Cl)n4-c4ccc([C@H]5COCCN5)cc4)c3=O)CC2)CC1C(F)(F)F (stereo partly drawn)" result="< 100 nM"

----------
Measured AUC(0-inf) of individual entries
assay: Pharmacokinetic (PK) parameters in mouse; format: in vivo, BALB/c mouse; conditions: blood; BALB/c mouse PO 3 mg/kg
property: AUC(0-inf) (ng·h/mL)

compound="C[C@H]1CN[C@H](c2ccc(-n3c(Cl)cc4c(=O)n(CC5(O)CCN(C(=O)[C@]6(C)C[C@H]6C(F)(F)F)CC5)cnc43)cc2)CO1 (single isomer, unassigned)" quantitative_readout=2100
compound=C[C@H]1CN[C@H](c2ccc(-n3c(Cl)cc4c(=O)n(CC5(O)CCN(C(=O)c6ccc(F)cc6)CC5)cnc43)cc2)CO1 quantitative_readout=593

----------
biological target: USP7 (Homo sapiens (Human)); test: USP7 fluorescence polarisation (FP) assay with ubiquitin-Lys-TAMRA substrate; type: biochemical; details: biochemical inhibition; unit not given in Table 3b (Table 1 and key of Table 3a use μM); read-out: USP7 IC50 activity (Table 3b)
Please respond with rule met when measured IC50 is strictly beneath 0.09 µM, and with rule not met in all other cases.

compound="C[C@H]1OCCN[C@@H]1c1ccc(-n2c(Cl)cc3c(=O)n(CC4(O)CCN(C(=O)c5ccc(Cl)cc5)CC4)cnc32)cc1 [Example 8]" target_or_system="USP7 (Homo sapiens (Human))" answer_label="rule met"
compound="Cc1cc(-n2c(Cl)cc3c(=O)n(CC4(O)CCN(C(=O)c5ccc(Cl)cc5)CC4)cnc32)ccc1[C@H]1CO[C@H](C)CN1 [Example 12]" target_or_system="USP7 (Homo sapiens (Human))" answer_label="rule not met"
compound="Cc1cc(-n2c(Cl)cc3c(=O)n(CC4(O)CCN(C(=O)c5ccc(C6(C)CC6)cc5)CC4)cnc32)ccc1[C@H]1CO[C@H](C)CN1 [Example 94]" target_or_system="USP7 (Homo sapiens (Human))" answer_label="rule not met"
compound="C[C@H]1CN[C@H](c2ccc(-n3c(Cl)cc4c(=O)n(CC5(O)CCN(C(=O)[C@]6(C)C[C@H]6C(F)(F)F)CC5)cnc43)cc2)CO1 (single isomer, unassigned) [Example 32]" target_or_system="USP7 (Homo sapiens (Human))" answer_label="rule met"
compound="Cc1cc(-n2c(Cl)cc3c(=O)n(CC4(O)CCN(C(=O)c5ccc(Cl)cc5F)CC4)cnc32)ccc1[C@H]1CO[C@H](C)CN1 [Example 50]" target_or_system="USP7 (Homo sapiens (Human))" answer_label="rule not met"
compound="CC1(C)CN[C@H](c2ccc(-n3c(Cl)cc4c(=O)n(CC5(O)CCN(C(=O)C6(C7CC7)CC6)CC5)cnc43)cc2)CO1 (single isomer, unassigned) [Example 41]" target_or_system="USP7 (Homo sapiens (Human))" answer_label="rule met"
compound="CC1(C(=O)N2CCC(O)(Cn3cnc4c(cc(Cl)n4-c4ccc(C5COCCN5)c(F)c4)c3=O)CC2)CC1 (stereo not drawn) [Example 72]" target_or_system="USP7 (Homo sapiens (Human))" answer_label="rule not met"
compound="CC1(C(=O)N2CCC(O)(Cn3cnc4c(cc(Cl)n4-c4ccc([C@H]5COCCN5)cc4)c3=O)CC2)CC1C(F)(F)F (stereo partly drawn) [Example 83]" target_or_system="USP7 (Homo sapiens (Human))" answer_label="rule met"
compound="CC1(C(=O)N2CCC(O)(Cn3cnc4c(cc(Cl)n4-c4ccc([C@H]5CO[C@H](C6CC6)CN5)cc4)c3=O)CC2)CC1 [Example 104]" target_or_system="USP7 (Homo sapiens (Human))" answer_label="rule not met"
compound="CC1(C)COCC(c2ccc(-n3c(Cl)cc4c(=O)n(CC5(O)CCN(C(=O)c6ccc(Cl)cc6)CC5)cnc43)cc2)N1 (stereo not drawn) [Example 16]" target_or_system="USP7 (Homo sapiens (Human))" answer_label="rule not met"
compound="O=C(c1ccc(Cl)cc1)N1CCC(O)(Cn2cnc3c(cc(Cl)n3-c3ccc([C@@H]4COCCN4)cc3)c2=O)CC1 (single isomer, unassigned) [Example 77]" target_or_system="USP7 (Homo sapiens (Human))" answer_label="rule met"
compound="CC1(C)CN[C@@H](c2ccc(-n3c(Cl)cc4c(=O)n(CC5(O)CCN(C(=O)C[C@H](c6ccccc6)C(F)(F)F)CC5)cnc43)cc2)CO1 (mixture of isomers) [Example 10]" target_or_system="USP7 (Homo sapiens (Human))" answer_label="rule met"

----------
biological target: USP7 (Homo sapiens (Human), UniProt Q93009); experiment: USP7 fluorescence polarisation (FP) assay with ubiquitin-Lys-TAMRA substrate; format: biochemical; details: biochemical inhibition; unit not given in Table 3b (Table 1 and key of Table 3a use μM); read-out: USP7 IC50 activity (Table 3b)
Sequence (Q93009 whole entry): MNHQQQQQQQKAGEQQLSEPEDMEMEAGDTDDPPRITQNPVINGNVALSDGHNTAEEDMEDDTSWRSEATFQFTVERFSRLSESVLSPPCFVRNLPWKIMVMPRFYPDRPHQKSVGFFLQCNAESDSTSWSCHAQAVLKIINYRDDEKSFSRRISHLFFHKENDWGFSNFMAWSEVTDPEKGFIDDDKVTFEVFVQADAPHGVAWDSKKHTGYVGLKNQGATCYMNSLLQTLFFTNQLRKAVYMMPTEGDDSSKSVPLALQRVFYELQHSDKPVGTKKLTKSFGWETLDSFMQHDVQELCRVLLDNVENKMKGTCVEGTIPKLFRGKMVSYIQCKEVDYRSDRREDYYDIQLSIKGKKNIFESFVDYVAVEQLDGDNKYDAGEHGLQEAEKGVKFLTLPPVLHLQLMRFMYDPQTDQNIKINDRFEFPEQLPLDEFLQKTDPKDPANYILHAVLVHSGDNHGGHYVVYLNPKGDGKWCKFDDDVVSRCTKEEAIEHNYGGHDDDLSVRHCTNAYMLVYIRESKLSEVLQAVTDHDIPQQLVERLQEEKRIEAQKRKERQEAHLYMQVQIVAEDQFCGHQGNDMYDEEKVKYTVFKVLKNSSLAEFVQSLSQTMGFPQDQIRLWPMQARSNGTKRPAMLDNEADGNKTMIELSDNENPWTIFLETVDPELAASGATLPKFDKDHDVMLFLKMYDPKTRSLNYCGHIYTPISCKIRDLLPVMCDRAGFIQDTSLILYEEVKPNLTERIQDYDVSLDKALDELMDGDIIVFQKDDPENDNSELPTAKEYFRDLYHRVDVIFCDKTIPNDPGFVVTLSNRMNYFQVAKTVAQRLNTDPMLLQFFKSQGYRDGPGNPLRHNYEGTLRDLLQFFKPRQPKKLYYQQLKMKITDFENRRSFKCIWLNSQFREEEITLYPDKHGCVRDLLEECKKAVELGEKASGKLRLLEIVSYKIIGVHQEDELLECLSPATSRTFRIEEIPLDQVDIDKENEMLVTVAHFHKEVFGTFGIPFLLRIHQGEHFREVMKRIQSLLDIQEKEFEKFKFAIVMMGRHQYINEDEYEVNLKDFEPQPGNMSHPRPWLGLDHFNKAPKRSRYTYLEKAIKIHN
Measured IC50 of individual entries
property: IC50 (µM)

compound="C[C@H]1CN[C@H](c2ccc(-n3ccc4c(=O)n(CC5(O)CCN(C(=O)c6ccc(Cl)cc6)CC5)cnc43)cc2)CO1 (racemic) [Example 17]" quantitative_readout=0.175
compound="Cc1cc(-n2c(Cl)cc3c(=O)n(CC4(O)CCN(C(=O)C[C@H](c5ccccc5)C(F)(F)F)CC4)cnc32)ccc1[C@H]1CO[C@H](C)CN1 [Example 14]" quantitative_readout=0.018
compound="C[C@H]1CN[C@H](c2ccc(-n3c(Cl)cc4c(=O)n(CC5(O)CCN(C(=O)C6(C)CCC6)CC5)cnc43)cc2)CO1 [Example 102]" quantitative_readout=0.05
compound="C[C@@H]1CN[C@@H](c2ccc(-n3c(Cl)cc4c(=O)n(CC5(O)CCN(C(=O)C6(C)CC6)CC5)cnc43)cc2)CO1 [Example 107]" quantitative_readout=0.093
compound="O=C(c1ccc(Cl)cc1)N1CCC(O)(Cn2cnc3c(cc(Cl)n3-c3ccc([C@@H]4CO[C@@H](C5CC5)CN4)cc3)c2=O)CC1 (single isomer, unassigned) [Example 64]" quantitative_readout=0.11
compound="C[C@@H]1CN[C@@H](c2ccc(-n3c(Cl)cc4c(=O)n(CC5(O)CCN(C(=O)C[C@H](c6ccccc6)C(F)(F)F)CC5)cnc43)cc2)CO1 [Example 13]" quantitative_readout=0.028

----------
Measured pIC50 of individual entries
Target: USP7 (Homo sapiens (Human))
Test: Target engagement assay-HTRF, competition with HA-Ub-VPS probe in HEK293 cells stably expressing Flag-tagged USP7
Type: cell-based
Details: HEK293 stable clone M6C5, 2 h treatment; read-out: Cellular target engagement: HEK293 Stable clone M6C5 USP7 IC50
Method: HEK293 cells stably expressing Flag-tagged USP7 were treated with vehicle (DMSO) or compound (using 50 μM starting concentration and 11 dp using 1:3 serial dilution) for 2 h and subsequently lysed on ice and homogenised. […] Following incubation, HTRF were measured using a Pherastar FSX (BMG Labtech) exciting at 337 nm and measuring the emission at 620/665 nm. […]
pIC50: −log10 of the molar value.
property: pIC50

molecule=C[C@H]1OCCN[C@@H]1c1ccc(-n2c(Cl)cc3c(=O)n(CC4(O)CCN(C(=O)c5ccc(Cl)cc5)CC4)cnc32)cc1 target_or_system="USP7 (Homo sapiens (Human))" censoring_sign== quantitative_readout=7.18
molecule="CC1(C(=O)N2CCC(O)(Cn3cnc4c(cc(Cl)n4-c4cccc(N5CCOCC5)c4)c3=O)CC2)CC1 [Comparative Example, reference compound]" target_or_system="USP7 (Homo sapiens (Human))" censoring_sign=< quantitative_readout=4.30
molecule="CC1(C(=O)N2CCC(O)(Cn3cnc4c(cc(Cl)n4-c4ccc([C@H]5COCCN5)cc4)c3=O)CC2)CC1C(F)(F)F (stereo partly shown)" target_or_system="USP7 (Homo sapiens (Human))" censoring_sign== quantitative_readout=7.12
molecule="O=C(C[C@H](c1ccccc1)C(F)F)N1CCC(O)(Cn2cnc3c(cc(Cl)n3-c3ccc([C@H]4COCCN4)cc3)c2=O)CC1 (single isomer, unassigned)" target_or_system="USP7 (Homo sapiens (Human))" censoring_sign== quantitative_readout=8.03

Attribution: patent US20250122223A1
